The entries below come with measured pIC50 values attached.
assayed_target: IDH2-R140Q (Homo sapiens, UniProt P48735, R140Q)
Sequence (P48735 40-452 R140Q): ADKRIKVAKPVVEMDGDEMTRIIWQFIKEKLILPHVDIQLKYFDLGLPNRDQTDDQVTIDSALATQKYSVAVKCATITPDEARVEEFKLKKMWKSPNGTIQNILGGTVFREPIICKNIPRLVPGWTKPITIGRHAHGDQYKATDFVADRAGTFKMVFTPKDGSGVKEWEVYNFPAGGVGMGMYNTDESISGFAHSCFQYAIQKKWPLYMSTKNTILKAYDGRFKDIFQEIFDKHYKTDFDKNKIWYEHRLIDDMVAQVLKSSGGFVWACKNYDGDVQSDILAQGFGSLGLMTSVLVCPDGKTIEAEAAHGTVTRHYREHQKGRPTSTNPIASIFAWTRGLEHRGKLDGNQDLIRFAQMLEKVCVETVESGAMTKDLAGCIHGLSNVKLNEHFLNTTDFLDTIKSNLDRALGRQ
assay_explanation: Fluorescent determination of IDH2-R140Q cell activity (2-HG in U87MGR140Q cells)
test_parameters: 72 hours incubation, read-out: IC50 (2-HG inhibition)
Worth noting: pIC50 values are minus log10 of concentrations stated in mol/L.

Before answering, review these 5 worked examples.
compound	assayed_target	value
CC(C)Nc1nc(Nc2cnn(C)c2)nc(C2=C(F)C(O)CCC2)n1 (centres unmarked)	IDH2-R140Q (Homo sapiens, UniProt P48735, R140Q)	5.66
C[C@@H](Nc1nc(N[C@H](C)C(F)(F)F)nc(C2=CC(O)C(F)(F)CC2)n1)C(F)(F)F (mixture of isomers)	IDH2-R140Q (Homo sapiens, UniProt P48735, R140Q)	6.16
C[C@@H](Nc1nc(N[C@H](C)C(F)(F)F)nc(C2=C(F)C(O)C(F)CC2)n1)C(F)(F)F (some centres unmarked) [Compound 269]	IDH2-R140Q (Homo sapiens, UniProt P48735, R140Q)	6.86
CC(Nc1nc(N[C@H](C)C(F)(F)F)nc(C2=C(F)C(O)CCC2)n1)C(F)F (mixture of isomers)	IDH2-R140Q (Homo sapiens, UniProt P48735, R140Q)	7.02
CC(C)(O)CNc1nc(Nc2ccnc(C(F)(F)F)c2)nc(C2=C(F)C(O)CCC2)n1 (centres unmarked)	IDH2-R140Q (Homo sapiens, UniProt P48735, R140Q)	6.95

Task: Which pIC50 is reported for this compound? C[C@H](Nc1nc(NC2CC2)nc(C2=C(F)C(O)C(F)(F)CC2)n1)C(F)(F)F (mixture of isomers)
Result: 7.03

Task: Which pIC50 is listed for C[C@@H](Nc1nc(N[C@@H]2CCOC2)nc(C2=CC(O)CCC2)n1)C(F)(F)F (some centres unmarked) ?
Result: 6.22

Task: Name the reported pIC50 value associated with the compound CC(C)[C@@H](C)Nc1nc(N[C@H](C)C(F)(F)F)nc(C2=C(F)C(O)CCC2)n1 (mixture of isomers)
Result: 6.79

Task: Look up pIC50 for this compound: CC(C)Nc1nc(NC2CC(F)(F)C2)nc(C2=C(F)C(O)CCC2)n1 (centres unmarked) [Compound 51]
Result: 6.90

Task: Return reported pIC50; argument: CC(C)Nc1nc(N[C@H](C)C(F)(F)F)nc(C2=CC(O)CCC2)n1 (mixture of isomers)
Result: 6.86

Task: # query: pIC50 of entry [2H]C1(O)C=C(c2nc(N[C@H](C)C(F)(F)F)nc(N[C@H](C)C(F)(F)F)n2)CCC1(F)F (mixture of isomers)
Result: 6.46

Task: Need pIC50, item [2H]C([2H])([2H])C([2H])(Nc1nc(Nc2ccnc(C(F)(F)F)c2)nc(C2=C(F)C(O)CCC2)n1)C([2H])([2H])[2H] (centres unmarked)
Result: 7.82

Task: Which pIC50 reading was recorded for the compound C[C@@H](Nc1nc(NC2CC(F)(F)C2)nc(C2=C(F)C(O)CCC2)n1)C(F)(F)F (mixture of isomers) ?
Result: 6.96

Task: Please report the recorded pIC50 for C[C@@H](Nc1nc(N[C@H](C)C(F)(F)F)nc(C2=C(F)C(O)CCC2)n1)c1ccccc1 (mixture of isomers) .
Result: 6.52

Sourced from patent US12234211B2
